// molecules with reported pIC50 on Substance-K receptor (Homo sapiens), multi-publication
Give bare numbers, as −log10 of the molar value.

See these solved cases before continuing.
>  <molecule>
COc1ccccc1CN(CC(Cc1c[nH]c2ccccc12)NC(=O)CNCc1cccnc1)C(C)=O (stereo not drawn)

>  <pIC50>
5.92

$$$$
>  <molecule>
COc1ccc(CN(CC(Cc2c[nH]c3ccccc23)NC(=O)CN2CCN(c3ccccc3)CC2)C(C)=O)cc1 (stereo not drawn)

>  <pIC50>
5.48

$$$$
>  <molecule>
CCC(C)[C@H](NC(=O)Cc1ccccc1F)C(=O)N[C@]1(C(=O)N[C@H](C(N)=S)C(C)CC)CCc2[nH]c3c(C(F)(F)F)cccc3c2C1 (stereo partly drawn)

>  <pIC50>
5.82

$$$$
>  <molecule>
O=C(CN1CCC(c2ccccc2)CC1)NC(Cc1c[nH]c2ccccc12)C(=O)NCc1ccccc1Cl (stereo not drawn)

>  <pIC50>
6.24

$$$$

Items follow; give pIC50 for each.
1. COc1ccccc1N1CCN(C(=O)[C@H](Cc2ccc3ccccc3c2)NC(=O)[C@@H]2C[C@@H](O)CN2S(=O)(=O)CC23CCC(CC2=O)C3(C)C)CC1 (stereo partly drawn)
2. COc1ccccc1CN(CC(Cc1c[nH]c2ccc(Br)cc12)NC(=O)CN1CCN(c2ccccc2)CC1)C(C)=O (stereo not drawn)
3. COc1ccccc1CN(CC(Cc1c[nH]c2ccccc12)NC(=O)CN1CCCCCC1)C(C)=O (stereo not drawn)
4. O=C(CN1CC(=O)N(Cc2ccccc2)CC1=O)NC(Cc1c[nH]c2ccccc12)C(=O)Nc1ccccc1 (stereo not drawn)
5. COc1ccccc1CN(CC(Cc1ccc2ccccc2c1)NC(=O)CN1CCN(c2ccccc2)CC1)C(C)=O (stereo not drawn)

stdout:
[6.46, 6.03, 6.03, 5.68, 6.08]

Items follow; give pIC50 for each.
1. COc1ccccc1CNCC(Cc1c[nH]c2cc(C)ccc12)NC(c1ccccc1)(c1ccccc1)c1ccccc1 (stereo not drawn)
2. O=C(CN1CCN(c2ccccc2)CC1)NC(CNCc1ccccc1)Cc1c[nH]c2ccccc12 (stereo not drawn)
3. CC(=O)NC(Cc1c[nH]c2ccccc12)CN(Cc1ccccc1)C(=O)CN1CCC(N2CCCCC2)CC1 (stereo not drawn)
4. COc1ccccc1CN(CC(Cc1c[nH]c2ccccc12)NC(=O)CCC(=O)c1ccccc1)C(C)=O (racemic)
5. COc1ccccc1CNCC(Cc1ccc2ccccc2c1)NC(=O)CN1CCN(c2ccccc2)CC1 (stereo not drawn)

stdout:
4.86
5.77
5.46
6.00
6.15

----------
// compounds with reported IC50 on Substance-K receptor (Homo sapiens), multi-publication

>  <compound>
COC[C@@H]1Nc2ccccc2[C@H]2[C@@H]1CCN2C(=O)[C@H]1CCCC[C@H]1NC(=O)c1ccc(C#N)c(C)c1

>  <IC50>
< 1 nM

$$$$
>  <compound>
COC[C@@H]1Nc2ccccc2[C@H]2[C@@H]1CCN2C(=O)[C@H]1CCCC[C@H]1NC(=O)c1ccccc1C#N

>  <IC50>
< 10 nM

$$$$

Items follow; give IC50 for each.
1. Cn1cccc1[C@@H]1Nc2ccccc2[C@H]2[C@@H]1CCN2C(=O)[C@H]1CCCC[C@H]1NC(=O)c1ccccc1 (relative stereo)
2. CCOC(=O)CCC(=O)N[C@@H]1CCCC[C@@H]1C(=O)N1CC[C@@H]2[C@H](c3ccccc3)Nc3ccccc3[C@@H]21
3. O=C(CCCCCN1CCOCC1)N[C@@H]1CCCC[C@@H]1C(=O)N1CC[C@@H]2[C@H](c3ccccc3)Nc3ccccc3[C@@H]21
4. O=C(NCC[C@@H]1Nc2ccccc2[C@H]2[C@@H]1CCN2C(=O)[C@H]1CCCC[C@H]1NC(=O)c1ccccc1)OCc1ccccc1
5. CC(=O)N1CCC(C(=O)N2CC[C@@H](N(C)C(=O)Nc3ccc(Cl)cc3)[C@H](c3ccc(Cl)c(Cl)c3)C2)CC1
6. COc1ccccc1CNCC(Cc1ccccc1)NC(c1ccccc1)(c1ccccc1)c1ccccc1 (stereo not shown)
7. CN1CCN(CC(=O)NC(Cc2c[nH]c3ccccc23)C(=O)NCc2ccccc2Cl)CC1 (stereo not shown)

stdout:
1. < 10 nM
2. < 10 nM
3. < 10 nM
4. < 10 nM
5. > 100 nM
6. 6400 nM
7. 3400 nM

----------
// molecules with reported pIC50 on Substance-K receptor (Homo sapiens, UniProt P21452), multi-publication
Numbers only, as −log10 of the molar value.

>  <molecule>
COc1cccc(CN(CC(Cc2c[nH]c3ccccc23)NC(=O)CN2CCN(c3ccccc3)CC2)C(C)=O)c1 (stereo not drawn)

>  <pIC50>
5.92

$$$$
>  <molecule>
COc1ccccc1CN(CC(NC(=O)CN1CCC(N2CCCCC2)CC1)c1ccc(Cl)c(Cl)c1)C(C)=O (stereo not drawn)

>  <pIC50>
6.37

$$$$
>  <molecule>
O=C(CN1CC(=O)N(Cc2ccccc2)CC1=O)NC(Cc1c[nH]c2ccccc12)C(=O)NCc1ccccc1Cl (stereo not drawn)

>  <pIC50>
7.09

$$$$
>  <molecule>
COc1ccccc1CN(CC(Cc1c[nH]c2ccccc12)NC(=O)CN1CCc2ccccc21)C(C)=O (stereo not drawn)

>  <pIC50>
6.31

$$$$

Items follow; give pIC50 for each.
1. COC(=O)CC(=O)N(Cc1ccccc1OC)CC(Cc1c[nH]c2ccccc12)NC(=O)CN1CCN(c2ccccc2)CC1 (stereo not drawn)
2. CC(=O)N(Cc1cccc(F)c1)CC(Cc1c[nH]c2ccccc12)NC(=O)CN1CCN(c2ccccc2)CC1 (stereo not drawn)
3. O=C(CN1CCN(c2ccccc2)CC1)NC(Cc1c[nH]c2ccccc12)C(=O)NCc1ccccc1 (stereo not drawn)
4. CC12CCC(C(C(=O)N3C[C@H](O)C[C@H]3C(=O)N[C@@H](Cc3ccc4ccccc4c3)C(=O)N3CCN(c4ccccc4C#N)CC3)C1=O)C2(C)C (stereo partly drawn)
5. COc1ccccc1CN1CC(C)(Cc2c[nH]c3ccccc23)N=C1C (stereo not drawn)

stdout:
[6.17, 6.06, 6.37, 7.72, 5.04]

Items follow; give pIC50 for each.
1. Cc1ccccc1CN(C)C(=O)[C@H](Cc1cn(C)c2ccccc12)NC(=O)[C@@H]1C[C@@H](O)CN1C(=O)C1C(=O)C2(C)CCC1C2(C)C (stereo partly drawn)
2. COc1ccccc1N1CCN(C(=O)[C@H](Cc2ccc3ccccc3c2)NC(=O)[C@@H]2C[C@@H](O)CN2C(=O)C2CCCCC2O)CC1 (stereo partly drawn)
3. CC(=O)N(CC(Cc1c[nH]c2ccccc12)NC(=O)CN1CCC(N2CCCCC2)CC1)c1ccccc1 (stereo not drawn)
4. COc1ccccc1CN1CC(c2ccccc2)N=C1C (stereo not drawn)
5. COc1ccccc1CN(CC(Cc1c[nH]c2ccccc12)NC(=O)CN1CCN(c2ccccc2)CC1)C(=O)CN (stereo not drawn)

stdout:
7.23
6.89
5.28
4.80
6.23

----------
// compounds with reported IC50 on Substance-K receptor (Homo sapiens), multi-publication
One number for each entry, in nM.

Items follow; give IC50 for each.
1. COc1ccc(N2CCN(C(=O)[C@H](Cc3ccc4ccccc4c3)NC(=O)[C@@H]3C[C@@H](O)CN3C(=O)C3C(=O)C4(C)CCC3C4(C)C)CC2)c(C)c1 (stereo partly shown)
2. COc1ccccc1CN(CC(Cc1c[nH]c2cccc(C)c12)NC(=O)CN1CCC(N2CCCCC2)CC1)C(C)=O (stereo not shown)
3. CC(=O)N(C)CC(Cc1c[nH]c2ccccc12)NC(=O)CN1CCN(c2ccccc2)CC1 (stereo not shown)

stdout:
117
2100
8000

Items follow; give IC50 for each.
1. CC(=O)N(CC1CCCCC1)CC(Cc1c[nH]c2ccccc12)NC(=O)CN1CCN(c2ccccc2)CC1 (stereo not shown)
2. COc1ccccc1CNCC(Cc1cccc2ccccc12)NC(=O)CN1CCN(c2ccccc2)CC1 (stereo not shown)
3. COc1ccccc1CN(CC(Cc1cn(C)c2ccccc12)NC(=O)CN1CCN(c2ccccc2)CC1)C(C)=O (stereo not shown)
4. CN(C(=O)N(C)[C@@H]1CN(C(=O)C2CCN(C(=O)C(C)(C)O)CC2)C[C@H]1c1ccc(F)cc1)c1cc(C(F)(F)F)cc(C(F)(F)F)c1

stdout:
1: 930; 2: 430; 3: 1200; 4: 2.4

----------
// molecules with reported pIC50 on Substance-K receptor (Homo sapiens), multi-publication
Give bare numbers, as −log10 of the molar value.

See these solved cases before continuing.
>  <molecule>
COc1ccccc1CN(CC(Cc1c[nH]c2ccccc12)NC(=O)CN1CCOCC1)C(C)=O (stereo not shown)

>  <endpoint.label>
pIC50

>  <recorded.measurement>
5.23

$$$$
>  <molecule>
O=C1CN(CC(=O)NC(Cc2c[nH]c3ccccc23)C(=O)NCc2ccccc2Cl)C(=O)CN1 (stereo not shown)

>  <endpoint.label>
pIC50

>  <recorded.measurement>
5.82

$$$$
>  <molecule>
COc1ccccc1CN(CC(Cc1c[nH]c2ccccc12)NC(=O)CN1CCN(c2ccc(Cl)cc2)CC1)C(C)=O (stereo not shown)

>  <endpoint.label>
pIC50

>  <recorded.measurement>
6.08

$$$$
>  <molecule>
COc1ccccc1N1CCN(C(=O)[C@H](Cc2ccc3ccccc3c2)NC(=O)[C@@H]2C[C@@H](O)CN2C(=O)C23CCC(C)(C(=O)O2)C3(C)C)CC1 (stereo partly shown)

>  <endpoint.label>
pIC50

>  <recorded.measurement>
5.91

$$$$
>  <molecule>
COc1ccccc1CN(CC(Cc1c[nH]c2ccccc12)NC(=O)CN1CCN(C)CC1)C(C)=O (stereo not shown)

>  <endpoint.label>
pIC50

>  <recorded.measurement>
5.05

$$$$
>  <molecule>
COc1ccccc1CN(CC(Cc1c[nH]c2cc(C)ccc12)NC(=O)CN1CCN(c2ccccc2)CC1)C(C)=O (stereo not shown)

>  <endpoint.label>
pIC50

>  <recorded.measurement>
6.03

$$$$
>  <molecule>
COc1ccccc1CN(CC(=O)O)CC(Cc1c[nH]c2ccccc12)NC(=O)CN1CCN(c2ccccc2)CC1 (stereo not shown)

>  <endpoint.label>
pIC50

>  <recorded.measurement>
5.62

$$$$

Proceed to the following item.
Entry O=C(CN1CCCCC1)NC(Cc1c[nH]c2ccccc12)C(=O)NCc1ccccc1Cl (stereo not shown) , pIC50 reported as 5.66
